settings: in water, 283.15 K
READOUT_KIND: solubility (mole fraction)
Answers are plain numbers.

(Q) Looking for the measured solubility (mole fraction) of "CC(C)(C)OC(=O)N[C@@H](CC(N)=O)C(=O)O" , can you help?
(A) 0.000247

* * *

conditions: in water, 303.15 K
READOUT_KIND: solubility (mole fraction)
Answers are plain numbers.

(Q) Name the reported solubility (mole fraction) value associated with the compound "CC(C)(C)OC(=O)N[C@@H](CC(N)=O)C(=O)O"
(A) 0.000492

* * *

conditions: in ethanol, 318.15 K
READOUT_KIND: solubility (mole fraction)
Give bare numbers.

(Q) So what's the measured solubility (mole fraction) for this one? "CC(C)(C)OC(=O)N[C@@H](CC(N)=O)C(=O)O"
(A) 0.00776
